Items are presented alongside their recorded glycan array binding signal (z-score).
# TESTED_TARGET: Man(a1-3)[Man(a1-6)]Man
# EXPERIMENT_SUMMARY: glycan array binding signal (z-score within array); higher = stronger binding
# CONDITION_SET: glycan notation: IUPAC condensed, linker removed
Shown is part of a subset that was picked to be rich in the strongest signals.
REPORTED_PROPERTY: glycan array binding signal (z-score)

- HFR-1 (Triticum aestivum) (protein) MSPQSFTLETTTTTPAAKGSDPSYFQSAPACHEMIQHKELLLHLYAYQNVQKTPDANQAVIVESKRPECFGILAANDWTVYDGPAHNANLVAHAQGLHLGASMAKENWFICFNMVFVNQRFTGSSFKVMGDFQGTAHNGEWAIVGGTGEFAYAQGVIAFKKTQQSERNARMELHVRAMCLSFLRPLLSLGDGSAVAKIGPWGKMSGELLDIPSTPQRLERITIRHGVVIDSLAFSFIDKAGEPYNVGPWGGRRGDNKDTIELAPSEIVTEVSGTVGIFAEDNVEYNAIASLTITTNHRPYGPFGETQSTPFSVPVQDNNNIVGFFACAGKYVEALGVYVRSPVST: 4.93
- TAL6-4LysM (Trichoderma atroviride) (protein) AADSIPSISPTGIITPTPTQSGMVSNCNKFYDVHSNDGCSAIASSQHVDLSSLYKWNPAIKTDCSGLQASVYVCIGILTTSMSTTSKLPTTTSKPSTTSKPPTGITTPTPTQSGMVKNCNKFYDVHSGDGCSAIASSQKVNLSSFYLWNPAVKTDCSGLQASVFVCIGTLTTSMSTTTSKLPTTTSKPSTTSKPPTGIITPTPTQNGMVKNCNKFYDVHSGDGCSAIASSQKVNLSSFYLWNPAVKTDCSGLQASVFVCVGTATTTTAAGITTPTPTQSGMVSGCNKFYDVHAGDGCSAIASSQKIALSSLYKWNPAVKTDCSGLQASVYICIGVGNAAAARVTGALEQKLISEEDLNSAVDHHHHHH: 3.24
- RNase 1 (Homo sapiens) (protein) KESRAKKFQRQHMDSDSSPSSSSTYCNQMMRRRNMTQGRCKPVNTFVHEPLVDVQNVCFQEKVTCKNGQGNCYKSNSSMHITDCRLTNGSRYPNCAYRTSPKERHIIVACEGSPYVPVHFDASVEDST: -0.147
